- EXPERIMENT: Selectivity index, ratio of IC50 for cytotoxicity against human HEK-293T cells to MIC of antimicrobial activity against methicillin-resistant Staphylococcus aureus ATCC 700699
- Type: toxicity, cell-based
- EXPERIMENTAL_SETUP: read-out: Selectivity Index
MEASURE: selectivity ratio

Quick check: selectivity ratio of O=C(O)c1ccc(-n2cc(CNc3cc(Cl)c(F)c(Cl)c3)c(-c3ccc(C(F)(F)F)cc3)n2)cc1 ?
33

###

- Test system: Staphylococcus aureus
- EXPERIMENT: Antimicrobial activity against methicillin-resistant Staphylococcus aureus ATCC 33592 assessed as bacterial growth inhibitions by CLSI protocol based microdilution method
- Assay type: functional
Measured MIC, listed per entry.
Express your answer as a number followed by its unit.

Worked cases, MIC given:
| MOLECULAR_STRING | MEASURE | ENDPOINT_RESULT |
| --- | --- | --- |
| O=C(O)c1ccc(-n2cc(CNc3ccc(N4CCOCC4)c(C(F)(F)F)c3)c(-c3ccc(C(F)(F)F)cc3)n2)cc1 | MIC | 0.78 µg/mL |
| O=C(O)c1ccc(-n2cc(CNc3cccc(OC(F)(F)F)c3)c(-c3ccc(C(F)(F)F)cc3)n2)cc1 | MIC | 0.78 µg/mL |
| O=C(O)c1ccc(-n2cc(CNc3ccc(F)c(F)c3)c(-c3ccc(C(F)(F)F)cc3)n2)cc1 | MIC | 1.56 µg/mL |

Let us examine a further case.
Request the reported MIC associated with O=C(O)c1ccc(-n2cc(CNc3cc(Cl)ccc3Cl)c(-c3ccc(C(F)(F)F)cc3)n2)cc1
0.78 µg/mL

###

Listed next: entries and their corresponding MIC.
- System: Staphylococcus aureus
- EXPERIMENT: Antimicrobial activity against methicillin-resistant Staphylococcus aureus ATCC 33591 assessed as bacterial growth inhibitions by CLSI protocol based microdilution method
- Format: functional

// worked examples, MIC included
| MOLECULAR_STRING | MEASURE | ENDPOINT_RESULT |
| --- | --- | --- |
| O=C(O)c1ccc(-n2cc(CNc3cc(Cl)c(F)cc3F)c(-c3ccc(C(F)(F)F)cc3)n2)cc1 | MIC | 1.56 µg/mL |
| O=C(O)c1ccc(-n2cc(CNc3cc(C(F)(F)F)cc(C(F)(F)F)c3)c(-c3ccc(C(F)(F)F)cc3)n2)cc1 | MIC | 0.78 µg/mL |
| O=C(O)c1ccc(-n2cc(CNc3ccc(F)cc3)c(-c3ccc(C(F)(F)F)cc3)n2)cc1 | MIC | 6.25 µg/mL |
| O=C(O)c1ccc(-n2cc(CNc3ccc(Cl)c(Cl)c3)c(-c3ccc(C(F)(F)F)cc3)n2)cc1 | MIC | 0.78 µg/mL |
| O=C(O)c1ccc(-n2cc(CNc3ccc(Br)c(C(F)(F)F)c3)c(-c3ccc(C(F)(F)F)cc3)n2)cc1 | MIC | 0.78 µg/mL |

What value of MIC on Staphylococcus aureus does O=C(O)c1ccc(-n2cc(CNc3cccc(C(F)(F)F)c3)c(-c3ccc(C(F)(F)F)cc3)n2)cc1 have?
0.78 µg/mL

// same read-out, input: O=C(O)c1ccc(-n2cc(CNc3cc(Cl)cc(Cl)c3)c(-c3ccc(C(F)(F)F)cc3)n2)cc1
0.78 µg/mL

Would you mind doing O=C(O)c1ccc(-n2cc(CNc3cc(Cl)c(F)c(Cl)c3)c(-c3ccc(C(F)(F)F)cc3)n2)cc1 as well?
0.78 µg/mL

Also check O=C(O)c1ccc(-n2cc(CNc3cc(Cl)cc(C(F)(F)F)c3)c(-c3ccc(C(F)(F)F)cc3)n2)cc1
0.78 µg/mL

And for O=C(O)c1ccc(-n2cc(CNc3ccc(Br)c(Cl)c3)c(-c3ccc(C(F)(F)F)cc3)n2)cc1 ?
0.78 µg/mL

Subsequent entry: O=C(O)c1ccc(-n2cc(CNc3cc(C(F)(F)F)ccc3F)c(-c3ccc(C(F)(F)F)cc3)n2)cc1
0.78 µg/mL

Also check N#Cc1ccc(NCc2cn(-c3ccc(C(=O)O)cc3)nc2-c2ccc(C(F)(F)F)cc2)cc1C(F)(F)F
0.78 µg/mL

Let us now turn to O=C(O)c1ccc(-n2cc(CNc3cc(Br)cc(C(F)(F)F)c3)c(-c3ccc(C(F)(F)F)cc3)n2)cc1
3.12 µg/mL

Also need O=C(O)c1ccc(-n2cc(CNc3ccc(F)c(Cl)c3)c(-c3ccc(C(F)(F)F)cc3)n2)cc1 , thanks.
0.78 µg/mL

Likewise for O=C(O)c1ccc(-n2cc(CNc3cccc(Br)c3)c(-c3ccc(C(F)(F)F)cc3)n2)cc1 ?
0.78 µg/mL

// next record O=C(O)c1ccc(-n2cc(CNc3cc(F)c(C(F)(F)F)c(F)c3)c(-c3ccc(C(F)(F)F)cc3)n2)cc1
1.56 µg/mL

###

Quick reference: MIC of the listed items.
- System: Enterococcus faecium
- EXPERIMENT: Antimicrobial activity against vancomycin-resistant Enterococcus faecium clinical isolate 1094112 by CLSI-based broth microdilution assay
- Format: functional
Give the value in µg/mL but do not write µg/mL after it.

| COMPOUND | UNIT | MIC |
| --- | --- | --- |
| C[C@@H](O)[C@H]1C(=O)N2C(C(=O)O)=C(S[C@@H]3CN[C@H](C(=O)N(C)C)C3)[C@H](C)[C@H]12 [MEROPENEM] | µg/mL | 8 |

Continue with the next compound.
Please look up its MIC: O=C(O)c1ccc(-n2cc(CNc3cc(F)cc(C(F)(F)F)c3)c(-c3ccc(C(F)(F)F)cc3)n2)cc1
4

###

Measured MIC values are reported for all entries that follow.
- Test system: Staphylococcus epidermidis
- EXPERIMENT: Antimicrobial activity against methicillin-resistant Staphylococcus epidermidis ATCC 700296 assessed as bacterial growth inhibitions by CLSI protocol based microdilution method
- Assay type: functional
Provide the reading as a plain figure in µg/mL.

Below, 3 compounds whose answers are already recorded.
| MOLECULAR_STRING | MIC (µg/mL) |
| --- | --- |
| O=C(O)c1ccc(-n2cc(CNc3ccc(Br)c(Cl)c3)c(-c3ccc(C(F)(F)F)cc3)n2)cc1 | 0.78 |
| O=C(O)c1ccc(-n2cc(CNc3cccc(C(F)(F)F)c3)c(-c3ccc(C(F)(F)F)cc3)n2)cc1 | 1.56 |
| N#Cc1ccc(NCc2cn(-c3ccc(C(=O)O)cc3)nc2-c2ccc(C(F)(F)F)cc2)cc1C(F)(F)F | 3.12 |

Now take the following compound into account.
GET /values?readout=MIC&item= O=C(O)c1ccc(-n2cc(CNc3cc(Cl)cc(Cl)c3)c(-c3ccc(C(F)(F)F)cc3)n2)cc1
0.78
